targetEntity: Steroidogenic factor 1 (Homo sapiens)
assayExplanation: SF1 (NR5A1) inverse agonists, counter-screen for LRH-1 inverse agonist project, cell-based, luminescence, high throughput (AID 651614);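 note: cells cotransfected with StAR promoter reporter and SF1 expression vector; 0% = vehicle on cells with receptor and 100% = vehicle on cells lacking receptor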
measurementContext: cell-based SF1 luciferase reporter, at 3.6 µM, active compounds read high
Lab note: anything with inhibition at or over 50% counts as label 1; the rest go in label 0.

1) CS(=O)(=O)c1ccc2nc(NC(=O)C3CC(=O)N(c4ccccc4)C3)sc2c1 (configuration not stated)	label 1
2) NC(=O)CC[C@H](NC(=O)c1ccc(F)cc1)C(=O)OCC(=O)Nc1ccc(N2CCOCC2)cc1	label 0
3) COc1ccc(C2=CC(=O)OC3(CCCCC3)O2)cc1	label 0
4) O=C(CSc1ncccc1C(=O)O)Nc1ccc2c(c1)OCCO2	label 0
5) CC(C)(C)C(=O)/C(=C/c1ccncc1)n1cncn1	label 0
6) Nc1ccccc1Nc1ccncc1[N+](=O)[O-]	label 1
7) COc1ccc(OC)c(CCNC(=O)C(C)n2nc(C)c3c(C)n(-c4ccc(C)cc4)nc3c2=O)c1 (configuration not stated)	label 1
8) O=C(Nc1ccc(N2CCN(Cc3ccccc3F)CC2)cc1)c1ccc([N+](=O)[O-])o1	label 1
9) COc1ccc(C2=CC(=O)OC3(CCCC3)O2)cc1	label 1
10) COc1ccc(OC)c(CCNC(=O)Cn2nc(C)c3c(C)n(-c4ccc(C)cc4)nc3c2=O)c1	label 1
11) CCc1nc(SCC(=O)c2ccccc2)c2ccccc2n1	label 1
12) C=CCn1c(SCC(=O)Nc2ccccc2C)nc(O)cc1=O	label 1
13) Cc1c(OCC(=O)NCCCN2CCOCC2)ccc2c(-c3ccccc3)cc(=O)oc12	label 0
14) COC(=O)c1ccc([C@H](NC(=O)c2ccco2)[C@]2(C)C[C@H]2C2CCCCC2)cc1	label 0
15) c1ccc(C[n+]2cccc3c4ccccc4ccc32)cc1	label 1
16) COc1cc2c(cc1OC)C(c1ccc(-c3ccc(Cl)cc3Cl)o1)=NCC2	label 1
17) COc1ccc(CCNC(=O)CSc2nn3c(=O)c(C)nnc3s2)cc1OC	label 0
18) O=C(Nc1cc(Cl)ccc1-n1cncn1)c1ccc([N+](=O)[O-])s1	label 1
19) Cc1c(C#N)c(O)n(CCO)c(=O)c1N=Nc1ccc2c(c1)COC2=O	label 1
20) CCOc1ccc(CCNC(=O)COC(=O)/C=C/c2ccc(OC(F)F)c(OC)c2)cc1OCC	label 0
21) COc1ccc(CCNC(=O)c2nnn(-c3ccc4c(c3)OCCO4)c2N)cc1OC	label 0

###

assayExplanation: VP16 transactivation reporter inhibitors, counter-screen for LRH-1 inverse agonist project, cell-based, luminescence, high throughput (AID 651615)
measurementContext: Gal4-VP16 luciferase reporter cells, at 3.6 µM, active compounds read high
Lab note: anything with inhibition at or over 40% counts as y; the rest go in n.

1) OCCCNc1c2ccccc2nc2ccccc12	y
2) O=C(Nc1cccc2ncccc12)c1ccc([N+](=O)[O-])o1	n
3) COc1ccc(NS(=O)(=O)c2ccc3c(c2)OCCO3)cc1OC	n
4) CCOc1ccccc1-n1c(SCC(=O)Nc2ccccc2C(=O)O)nc2ccccc2c1=O	n
5) c1csc(CCNc2ncnc3sc4c(c23)CCC4)c1	y
6) COc1ccc(OC)c(N(CCN2C(=O)c3ccccc3C2=O)C(=O)CCl)c1	n

###

targetEntity: Nuclear receptor coactivator 3 (Homo sapiens) (UniProt Q9Y6Q9)
Sequence (Q9Y6Q9 whole entry, looked up): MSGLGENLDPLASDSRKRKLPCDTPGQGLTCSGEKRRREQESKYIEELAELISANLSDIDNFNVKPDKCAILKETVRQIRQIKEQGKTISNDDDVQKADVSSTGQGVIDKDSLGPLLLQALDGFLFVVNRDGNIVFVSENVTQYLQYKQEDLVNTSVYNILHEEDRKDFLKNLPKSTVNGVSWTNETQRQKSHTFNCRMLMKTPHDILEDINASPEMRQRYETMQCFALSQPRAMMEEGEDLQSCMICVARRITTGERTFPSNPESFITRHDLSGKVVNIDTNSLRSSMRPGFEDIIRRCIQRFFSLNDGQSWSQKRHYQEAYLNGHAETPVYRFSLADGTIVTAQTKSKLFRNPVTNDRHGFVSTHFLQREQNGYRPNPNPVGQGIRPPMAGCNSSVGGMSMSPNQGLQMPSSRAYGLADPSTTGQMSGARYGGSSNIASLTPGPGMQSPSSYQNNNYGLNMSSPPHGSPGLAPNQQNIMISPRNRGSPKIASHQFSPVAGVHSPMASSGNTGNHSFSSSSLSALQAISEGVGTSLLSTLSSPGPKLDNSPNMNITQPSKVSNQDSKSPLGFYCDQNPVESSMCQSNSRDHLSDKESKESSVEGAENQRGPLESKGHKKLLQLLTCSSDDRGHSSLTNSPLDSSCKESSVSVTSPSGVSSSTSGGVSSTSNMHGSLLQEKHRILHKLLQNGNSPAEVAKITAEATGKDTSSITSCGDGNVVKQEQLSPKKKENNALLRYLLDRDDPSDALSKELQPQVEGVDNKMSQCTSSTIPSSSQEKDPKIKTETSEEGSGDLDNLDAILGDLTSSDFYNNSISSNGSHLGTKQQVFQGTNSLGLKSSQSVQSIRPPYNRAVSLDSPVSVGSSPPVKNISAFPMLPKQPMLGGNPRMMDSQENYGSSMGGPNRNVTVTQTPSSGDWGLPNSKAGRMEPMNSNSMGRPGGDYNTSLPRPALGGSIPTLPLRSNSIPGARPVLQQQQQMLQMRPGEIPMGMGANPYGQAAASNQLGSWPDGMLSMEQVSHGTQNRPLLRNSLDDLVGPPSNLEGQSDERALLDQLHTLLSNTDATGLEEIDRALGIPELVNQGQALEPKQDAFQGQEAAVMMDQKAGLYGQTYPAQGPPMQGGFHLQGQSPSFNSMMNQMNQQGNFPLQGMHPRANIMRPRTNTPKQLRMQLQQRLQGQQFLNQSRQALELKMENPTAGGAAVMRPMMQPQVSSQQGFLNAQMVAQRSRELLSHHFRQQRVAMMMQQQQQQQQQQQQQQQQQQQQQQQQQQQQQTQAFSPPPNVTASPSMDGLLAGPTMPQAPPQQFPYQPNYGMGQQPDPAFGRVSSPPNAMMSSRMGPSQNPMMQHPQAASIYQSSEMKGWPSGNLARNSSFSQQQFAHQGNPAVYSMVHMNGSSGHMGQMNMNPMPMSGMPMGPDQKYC
assayExplanation: SRC3 coactivator transcriptional activity inhibitors, confirmation, cell-based, luminescence, quadruplicate (AID 588792);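 note: 0% = DMSO treated cells and 100% = gossypol at 36 µM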
measurementContext: HEK293 GAL4-SRC3 luciferase reporter, at 3.6 µM, active compounds read high
Lab note: anything with inhibition at or over 40% counts as label 1; the rest go in label 0.

1. Cc1ccc(NC(=O)c2cc(C)n(-c3ccccc3)c2C)cc1	label 1
2. Nc1ccc2c(c1)OC1(CCCC1)O2	label 0
3. CC1CCCCN1c1ncnc(N)c1[N+](=O)[O-] (stereo unspecified)	label 1
4. CCN(C(=O)c1cnc(OC)cc1C(F)(F)F)c1ccc(Cl)cc1	label 0
5. COc1cc(/C=C/c2cc(C(F)(F)F)[nH]c(=O)n2)cc(OC)c1OC	label 0
6. C=C(C(=O)c1ccccc1)C(C)C(=C)C(=O)c1ccccc1	label 1
7. c1cnc2c(c1)ccc1cccnc12	label 1
8. CCCS(=O)(=O)Nc1ccc(Nc2c3ccccc3nc3ccccc23)c(OC)c1	label 1
9. CN(C)c1ccc(C=c2c3cc([N+](=O)[O-])ccc3n3c2cc(-c2ccccc2)[n+]3C)cc1	label 0
10. CCN(CC)C(=O)c1[nH]cnc1C(=O)N[C@@H](CCCCNC(=O)OC(C)(C)C)C(=O)OC(C)(C)C	label 0

###

assayExplanation: VP16 transactivation reporter inhibitors, counter-screen for LRH-1 inverse agonist project, cell-based, luminescence, high throughput (AID 651615)
measurementContext: Gal4-VP16 luciferase reporter cells, at 3.6 µM
The source made the active and inactive calls. No stated cut-off is given here; in the data, active means inhibition above about 33%; inactive means the rest.
Classes used: 1.0 for active, 0.0 for inactive

1. O=C(NN=Cc1c(O)ccc2ccccc12)c1ccncc1	1.0
2. N#Cc1cccc(C=C(C(=O)c2ccccc2)c2ccccc2)c1	1.0
3. COc1cc(F)c(C2=CC(=O)CC(C)(C)C2)cc1F	0.0
4. COc1cccc(C2=CC(=O)CC(C)(C)C2)n1	1.0
5. N=c1c2c(n(Cc3cccc(Cl)c3)c3c1CCC3)CCCC2	1.0
6. CC(C)NC(=O)N1Cc2cc(C(=O)NC3CCCC3)nc(-c3cccc(-c4cccnc4)c3)c2[C@@H]1CCO	0.0
7. Cc1nn(C(C)(C)C)c(C)c1/C=N/OC(=O)Nc1ccc(Cl)cc1	1.0
8. CN(C)c1ccc2nc3ccc(=[N+](C)C)cc-3sc2c1	1.0
9. Cc1onc(-c2c(F)cccc2Cl)c1C(=O)O/N=C(\N)c1ccc([N+](=O)[O-])o1	0.0
10. CCC(=O)Nc1ccc(NC(=O)CSc2nc3c(c(=O)n(C)c(=O)n3C)n2CC)cc1	0.0
11. Cc1nn(Cc2ccc(C(=O)Nc3nccs3)cc2)c(C)c1Cl	1.0

###

targetEntity: Steroidogenic factor 1 (Homo sapiens) (UniProt Q13285)
Sequence (Q13285 whole entry, looked up): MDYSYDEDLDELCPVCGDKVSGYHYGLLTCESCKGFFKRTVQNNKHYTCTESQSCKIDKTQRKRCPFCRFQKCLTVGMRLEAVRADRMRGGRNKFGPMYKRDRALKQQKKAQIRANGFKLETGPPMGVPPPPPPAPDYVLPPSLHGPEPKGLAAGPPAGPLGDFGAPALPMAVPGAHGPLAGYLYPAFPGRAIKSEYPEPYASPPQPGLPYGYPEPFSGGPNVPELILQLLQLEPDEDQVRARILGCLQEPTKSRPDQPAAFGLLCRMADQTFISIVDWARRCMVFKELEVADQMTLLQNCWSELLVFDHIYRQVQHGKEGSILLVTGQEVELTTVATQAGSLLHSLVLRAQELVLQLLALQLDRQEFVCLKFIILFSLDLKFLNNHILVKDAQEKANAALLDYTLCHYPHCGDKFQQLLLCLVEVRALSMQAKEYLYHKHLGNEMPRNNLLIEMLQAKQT
assayExplanation: SF1 (NR5A1) inverse agonists, counter-screen for LRH-1 inverse agonist project, cell-based, luminescence, high throughput (AID 651614);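 note: cells cotransfected with StAR promoter reporter and SF1 expression vector; 0% = vehicle on cells with receptor and 100% = vehicle on cells lacking receptor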
measurementContext: cell-based SF1 luciferase reporter, at 3.6 µM, active compounds read high
Lab note: anything with inhibition at or over 50% counts as condition met; the rest go in condition not met.

1) COc1cccc(CNc2nc3cc(-c4cnn(Cc5ccccc5)c4)sc3c(=O)n2C)c1	condition met
2) COCc1cc(C)nc(SCC(=O)Nc2cc3c(cc2C#N)OCO3)c1C#N	condition not met
3) CCOC(=O)C1CCCN(S(=O)(=O)c2ccc(S(=O)(=O)N(CC)CC)cc2)C1 (stereo unspecified)	condition met
4) Cc1ccc(/C=C/S(=O)(=O)NCC(=O)OCC(=O)Nc2c(F)cccc2F)cc1	condition met
5) COc1ccc(CCNC(=O)CSc2ccc(NC(C)=O)cc2)cc1OC	condition met
6) Nc1ccc2c(c1)C(=O)C(=O)c1ccccc1-2	condition met

###

targetEntity: Nuclear receptor subfamily 5 group A member 2 (Homo sapiens) (UniProt O00482)
Sequence (O00482 whole entry, looked up): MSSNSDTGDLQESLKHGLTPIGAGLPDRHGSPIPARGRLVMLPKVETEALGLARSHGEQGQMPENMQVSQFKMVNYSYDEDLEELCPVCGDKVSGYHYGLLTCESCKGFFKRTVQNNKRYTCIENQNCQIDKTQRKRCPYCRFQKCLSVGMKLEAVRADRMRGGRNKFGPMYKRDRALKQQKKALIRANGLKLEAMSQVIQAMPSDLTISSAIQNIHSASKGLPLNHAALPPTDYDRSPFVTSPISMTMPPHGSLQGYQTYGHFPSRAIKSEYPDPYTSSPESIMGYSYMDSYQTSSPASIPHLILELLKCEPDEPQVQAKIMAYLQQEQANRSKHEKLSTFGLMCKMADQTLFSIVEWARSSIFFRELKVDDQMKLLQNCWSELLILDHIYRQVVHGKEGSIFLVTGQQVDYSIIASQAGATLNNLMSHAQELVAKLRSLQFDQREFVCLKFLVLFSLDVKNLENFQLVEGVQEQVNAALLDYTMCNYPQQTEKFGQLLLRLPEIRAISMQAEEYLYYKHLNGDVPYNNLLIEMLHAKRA
assayExplanation: LRH-1 (NR5A2) inverse agonists, retest, confirmation, cell-based, luminescence (AID 651613);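 note: HEK293T cells co-transfected with LRH-1 and StAR promoter luciferase reporter; 0% = vehicle wells and 100% = parental cells lacking receptor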
measurementContext: cell-based LRH-1 luciferase reporter, inverse agonism; at 3.6 µM
Activity calls are given as the source filed them. Cut-off read from the data, not from the text of the source: active = inhibition above about 42%; inactive = the rest.
Classes used: YES (active), NO (inactive)

1. CC(=O)C1=C(c2ccc(Br)cc2)C(=O)c2ccccc2C1=O	YES
2. N=c1c2c(-c3ccccc3)c(-c3ccccc3)n(Cc3ccccc3)c2ncn1CCO	YES
3. O=c1c2ccccc2sc2ccc(C#CC3(O)CCCCC3)cc12	YES
4. C(=NN1CCCCCC1)c1ccc2ccccc2n1	YES
5. O=C(COc1ccc(C(=O)c2ccccc2)cc1)NCc1ccc(F)cc1	NO
6. CS(=O)(=O)c1ccc(-c2cc(NC=O)c3ncc(-c4ccc(F)cc4)n3c2)cc1	YES
7. Cc1ccc(Cn2nc(C)c(NC(=O)c3noc4c3CCCCC4)c2C)cc1	YES
8. CC(C)CCCCCCCCCCCCC(=O)NCC(=O)NC1C(C)OC(Nc2ncnc3nc[nH]c23)C(O)C1O (stereo not given)	YES
9. CCCCCCCCN1C(=O)[C@H](CC(=O)NCC23CC4CC(CC(C4)C2)C3)C[C@@]2(C(=O)OCC)CCCC=C12	NO
10. O=C(Nc1ccc(N2CCN(C(=O)c3ccc(Cl)cc3)CC2)cc1)c1ccc([N+](=O)[O-])o1	YES

###

targetEntity: Nuclear receptor coactivator 1 (Homo sapiens)
assayExplanation: SRC1 coactivator transcriptional activity inhibitors, confirmation, cell-based, luminescence, quadruplicate (AID 588820);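 note: 0% = DMSO wells and 100% = gossypol 36 µM treated wells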
measurementContext: HEK293 GAL4-SRC1 luciferase reporter, at 3.6 µM, active compounds read high
Measured inhibition values are reported for all entries that follow.
measure: inhibition (%)

1) O=C(c1cncc(Br)c1)N1CCc2ccccc2C1	46.3
2) Cn1c(/C=N/NC(=O)c2ccccc2Br)nc2ccccc21	4.29
3) CCOC(=O)N1CCN(C(=O)c2cc(-c3ccncc3)nc3ccccc23)CC1	-21.2
4) CCN1/C(=C\c2ccc3ccccc3[n+]2CC)Sc2cc(C)ccc21	32.7
5) CC(=O)c1cccc(NC(=O)Nc2cccnc2)c1	58
6) COCCn1c(SCC(=O)Nc2cccc(NC(C)=O)c2)nc2c([nH]c3ccccc32)c1=O	-31.7
7) NC(=O)N=Nc1c2[nH]c3ccccc3nc-2c2ccccc12	-11.8
8) COc1cccc(CNc2nc3cc(-c4ccsc4)sc3c(=O)n2C)c1OC	-0.05
9) CCc1ccc2[nH]c3nc(N/N=C/c4cccc(O)c4)nnc3c2c1	22.6
10) c1cc2c(cc1C1=NNC(=NC3CC3)SC1)OCCO2	15.5
11) O=C(CCCOc1ccc(Cl)cc1Cl)N/N=C/c1ccccc1O	29.5
12) Cc1nnc(SCC(=O)N2CCC(c3noc4ccc(F)cc34)CC2)s1	69.4
13) CN(C)c1cc[n+](CC(=O)c2ccc(-c3ccccc3)cc2)cc1	35
14) O=C(NNc1ccnc2cc(Cl)ccc12)C1CCCCC1	-34.1
15) Oc1ccc(-c2n[nH]c(=S)n2-c2ccc3c(c2)OCCO3)c(O)c1	20.9
16) Cc1ccc2occ(/C=N/NC(=O)[C@@H](N)Cc3ccccc3)c(=O)c2c1	15.7
17) N=c1c2c(n(Cc3cccc(Cl)c3)c3c1CCC3)CCCC2	40.5
18) CC(=O)Nc1ccc(OCC(=O)Nc2ccc(Cl)c(S(=O)(=O)N3CCOCC3)c2)cc1	-7.7
19) COc1ccc(C[C@H]2COC(=O)[C@@H]2Cc2ccc(OC3OC(CO)C(O)C(O)C3O)c(OC)c2)cc1OC (stereo partly drawn)	9.39
20) CC(=O)c1c(C)[nH]c(C(=O)COc2ccc3ccc(=O)oc3c2)c1C	-13.5
21) CC(C)(C)OC(=O)NCCCCCNC(=O)c1nc[nH]c1C(=O)NCCCCCNC(=O)OC(C)(C)C	-20
22) Fc1cc2[nH]cnc2cc1Cl	-2.02
23) C(=Cc1cnc2ccccc2n1)c1ccc2c(c1)OCO2	-41.3

Data provenance: PubChem BioAssay
